Data origin: ChEMBL document CHEMBL1221284

Below, each of the molecules is paired with its reported log10(AUC) value.
Assay summary: AUC in rat at 3 mg/kg, po and 3 mg/kg, iv
Format: ADME, organism-based
Stated conditions: plasma
Short version: log10 scale, AUC, µM·h.

Worked cases, log10(AUC) given:
# Smiles, log10(AUC)
data = [
    ("COC(=O)N1C[C@@H](F)C[C@H]1c1nc(C(=O)NCc2ccc(C)c(Cl)c2)c(O)c(=O)n1C", 0.08),
    ("Cn1c([C@@H]2C[C@H](F)CN2C(=O)c2cnccn2)nc(C(=O)NCc2ccc(F)cc2)c(O)c1=O", 0.36),
    ("COC(=O)N1C[C@@H](F)C[C@H]1c1nc(C(=O)NCc2ccc(F)c(Cl)c2)c(O)c(=O)n1C", 0.11),
]

Query block: Which log10(AUC) value is on record for `COC(=O)N1C[C@@H](F)C[C@H]1c1nc(C(=O)NCc2ccc(F)cc2)c(O)c(=O)n1C` ?
Result block: 0.08

Query block: For the molecule shown here, `CN1C[C@@H](F)C[C@H]1c1nc(C(=O)NCc2ccc(F)cc2)c(O)c(=O)n1C` , give the reported log10(AUC).
Result block: 0.65

Query block: What does the record list as log10(AUC) for `CC(=O)N1C[C@@H](F)C[C@H]1c1nc(C(=O)NCc2ccc(F)c(C)c2)c(O)c(=O)n1C` ?
Result block: -0.30

Query block: Report log10(AUC) for `CN(C)C(=O)C(=O)N1C[C@@H](F)C[C@H]1c1nc(C(=O)NCc2ccc(F)cc2)c(O)c(=O)n1C` please.
Result block: -0.70

Query block: Value lookup for log10(AUC); key = `CC(=O)N1C[C@@H](F)C[C@H]1c1nc(C(=O)NCc2ccc(C)c(Cl)c2)c(O)c(=O)n1C`
Result block: 0.57

Query block: Query: log10(AUC); subject: `CC(=O)N1C[C@@H](F)C[C@H]1c1nc(C(=O)NCc2ccc(F)cc2)c(O)c(=O)n1C`
Result block: 0.08

Query block: Param item = `CC(=O)N1C[C@@H](F)C[C@H]1c1nc(C(=O)NCc2ccc(F)c(Cl)c2)c(O)c(=O)n1C` ; retrieve measured log10(AUC).
Result block: -0.30

* * *

Test system: Human immunodeficiency virus 1
Assay summary: Antiviral activity against HIV1 3B infected in human MT4 cells assessed as inhibition of viral infections in presence of 50 % normal human serum
Format: functional
Stated conditions: Human immunodeficiency virus 1, 3B, read-out: CIC95
Assay endpoint: IC95 (µM)
# number only, unit µM dropped from output

# Smiles, IC95 / µM
records = [
    ("CC(=O)N1C[C@@H](F)C[C@H]1c1nc(C(=O)NCc2ccc(F)cc2)c(O)c(=O)n1C", 0.017),
]

Query block: What value of IC95 has been recorded for this entry: `CC(=O)N1C[C@@H](F)C[C@H]1c1nc(C(=O)NCc2ccc(C)c(Cl)c2)c(O)c(=O)n1C`
Result block: 0.046

Query block: Recorded IC95 for `Cn1c([C@@H]2C[C@H](F)CN2C(=O)c2cnccn2)nc(C(=O)NCc2ccc(F)cc2)c(O)c1=O` , please?
Result block: 0.016

Query block: Request the reported IC95 associated with `COC(=O)N1C[C@@H](F)C[C@H]1c1nc(C(=O)NCc2ccc(C)c(Cl)c2)c(O)c(=O)n1C`
Result block: 0.063

Query block: Tell me the measured IC95 of `CN(C)C(=O)N1C[C@@H](F)C[C@H]1c1nc(C(=O)NCc2ccc(F)cc2)c(O)c(=O)n1C` , please.
Result block: 0.125

Query block: Entry `Cn1c([C@@H]2C[C@H](F)CN2S(C)(=O)=O)nc(C(=O)NCc2ccc(F)cc2)c(O)c1=O` has what IC95?
Result block: 0.125

Query block: I'd like to know its IC95. The compound in question is `Cn1c([C@@H]2C[C@H](F)CN2C2CC2)nc(C(=O)NCc2ccc(F)cc2)c(O)c1=O`
Result block: 0.25

Query block: Form field: reported IC95 of `CC(=O)N1C[C@@H](F)C[C@H]1c1nc(C(=O)NCc2ccc(F)c(Cl)c2)c(O)c(=O)n1C`
Result block: 0.017

Query block: Quick check: IC95 of `COC(=O)N1C[C@@H](F)C[C@H]1c1nc(C(=O)NCc2ccc(F)cc2)c(O)c(=O)n1C` ?
Result block: 0.063

Query block: Bench note: what IC95 did `COC(=O)N1C[C@@H](F)C[C@H]1c1nc(C(=O)NCc2ccc(F)c(Cl)c2)c(O)c(=O)n1C` show?
Result block: 0.031

Query block: May I ask what IC95 has been recorded for `CN(C)C(=O)C(=O)N1C[C@@H](F)C[C@H]1c1nc(C(=O)NCc2ccc(F)cc2)c(O)c(=O)n1C` ?
Result block: 0.016

Query block: What does the record list as IC95 for `CN1C[C@@H](F)C[C@H]1c1nc(C(=O)NCc2ccc(F)cc2)c(O)c(=O)n1C` ?
Result block: 0.125

Query block: What value of measured IC95 is listed for `Cn1c([C@@H]2C[C@H](F)CN2Cc2ccon2)nc(C(=O)NCc2ccc(F)cc2)c(O)c1=O` ?
Result block: 0.625

Query block: What measured IC95 goes with `CC(=O)N1C[C@@H](F)C[C@H]1c1nc(C(=O)NCc2ccc(F)c(C)c2)c(O)c(=O)n1C` ?
Result block: 0.031

Query block: // lookup IC95 for `CN(C)S(=O)(=O)N1C[C@@H](F)C[C@H]1c1nc(C(=O)NCc2ccc(F)cc2)c(O)c(=O)n1C`
Result block: 0.125

* * *

Assay summary: Metabolic stability in rat liver microsomes assessed as glucuronidation rate after 1 hr in presence of UDPGA
Type: ADME, Microsome
Assay endpoint: remaining at 1 h (%)
Response body: numeric value in %, unit text excluded.

Query block: Give its remaining at 1 h value. Item: `CC(=O)N1C[C@@H](F)C[C@H]1c1nc(C(=O)NCc2ccc(F)cc2)c(O)c(=O)n1C`
Result block: 43

* * *

Assay summary: AUC in dog at 1 mg/kg, iv and 2 mg/kg, po
Stated conditions: plasma
Assay endpoint: AUC (µM·h)
Note: unit µM·h is implicit; provide only the numeric part.

Query block: Report AUC for `CN1C[C@@H](F)C[C@H]1c1nc(C(=O)NCc2ccc(F)cc2)c(O)c(=O)n1C` please.
Result block: 23.1

Query block: Fill in the blank: the reported AUC of `CC(=O)N1C[C@@H](F)C[C@H]1c1nc(C(=O)NCc2ccc(C)c(Cl)c2)c(O)c(=O)n1C` is ____.
Result block: 6.4

Query block: Please give the measured AUC for this compound: `CC(=O)N1C[C@@H](F)C[C@H]1c1nc(C(=O)NCc2ccc(F)c(Cl)c2)c(O)c(=O)n1C`
Result block: 2.8

* * *

Test system: Human immunodeficiency virus 1
Assay summary: Antiviral activity against HIV1 3B infected in human MT4 cells assessed as inhibition of viral infections in presence of 10% fetal bovine serum
Type: functional
Stated conditions: Human immunodeficiency virus 1, 3B, read-out: CIC95
Assay endpoint: IC95 (nM)
Field format: number, assumed nM, no unit text.

# Smiles, Tested system, Assay endpoint, Quantitative readout
rows = [
    ("CC(=O)N1C[C@@H](F)C[C@H]1c1nc(C(=O)NCc2ccc(F)cc2)c(O)c(=O)n1C", "Human immunodeficiency virus 1", "IC95", 14),
]

Query block: Tell me the measured IC95 of `CC(=O)N1C[C@@H](F)C[C@H]1c1nc(C(=O)NCc2ccc(C)c(Cl)c2)c(O)c(=O)n1C` , please.
Result block: 5

Query block: Which measured IC95 value corresponds to `Cn1c([C@@H]2C[C@H](F)CN2C2CC2)nc(C(=O)NCc2ccc(F)cc2)c(O)c1=O` ?
Result block: 63

Query block: Param item = `CC(=O)N1C[C@@H](F)C[C@H]1c1nc(C(=O)NCc2ccc(F)c(C)c2)c(O)c(=O)n1C` ; retrieve measured IC95.
Result block: 16

* * *

Test system: Human immunodeficiency virus 1
Assay summary: Antiviral activity against HIV1 3B infected in human MT4 cells assessed as inhibition of viral infections in presence of 10% fetal bovine serum
Assay type: functional
Stated conditions: Human immunodeficiency virus 1, 3B, read-out: CIC95
Assay endpoint: IC95 (µM)
State the answer as a number, implicitly in µM.

Use the examples below as a reference point.
# Smiles, Tested system, Quantitative readout
rows = [
    ("CN1C[C@@H](F)C[C@H]1c1nc(C(=O)NCc2ccc(F)cc2)c(O)c(=O)n1C", "Human immunodeficiency virus 1", 0.063),
    ("Cn1c([C@@H]2C[C@H](F)CN2C(=O)c2cnccn2)nc(C(=O)NCc2ccc(F)cc2)c(O)c1=O", "Human immunodeficiency virus 1", 0.016),
    ("CN(C)C(=O)C(=O)N1C[C@@H](F)C[C@H]1c1nc(C(=O)NCc2ccc(F)cc2)c(O)c(=O)n1C", "Human immunodeficiency virus 1", 0.016),
    ("Cn1c([C@@H]2C[C@H](F)CN2Cc2ccon2)nc(C(=O)NCc2ccc(F)cc2)c(O)c1=O", "Human immunodeficiency virus 1", 0.156),
]

Query block: Tell me reported IC95 for `Cn1c([C@@H]2C[C@H](F)CN2S(C)(=O)=O)nc(C(=O)NCc2ccc(F)cc2)c(O)c1=O` , tested with Human immunodeficiency virus 1.
Result block: 0.031

Query block: Lab request: please report IC95 under test system Human immunodeficiency virus 1 for `COC(=O)N1C[C@@H](F)C[C@H]1c1nc(C(=O)NCc2ccc(F)c(Cl)c2)c(O)c(=O)n1C`
Result block: 0.016

Query block: Record `CC(=O)N1C[C@@H](F)C[C@H]1c1nc(C(=O)NCc2ccc(F)c(Cl)c2)c(O)c(=O)n1C` : what is its IC95 with Human immunodeficiency virus 1?
Result block: 0.003
